Entries and their measured growth follow.
# Tested on: BT-549 breast
# ASSAY_EXPLANATION: NCI-60 one-dose screen, 48 h (100 = growth as untreated, 0 = no growth, -100 = all killed)
# CONDITION_SET: 10 µM unless noted
This is part of a sample that, as a whole, favours compounds with a hit. Of some 83,000 tested, about 20% had one in any assay. The source made the active and inactive calls. How the source made its calls: active means growth percent below 10; inactive means the rest.

input: Quick check: growth of O=C(O)c1cc2cc(OCc3ccccc3)ccc2[nH]1 ?
output: 84.9% (inactive)

* * *

# System: CCRF-CEM leukemia
# ASSAY_EXPLANATION: NCI-60 one-dose screen, 48 h
# CONDITION_SET: 10 µM unless noted
About 83,000 compounds went through this panel and 20% of them were active in at least one assay; those are over-represented in the sample as a whole. Active and inactive are the calls of the source. The calls were made as follows: active = growth percent below 10; inactive = the rest.
One label from this list, please: active, inactive

Use the examples below as a reference point.
CCN(CC)CCCCCCCCNc1c2ccc(Cl)cc2nc2ccc(OC)cc12
active
COc1ccc(CNc2c3ccccc3nc3ccc(OC)cc23)cc1
inactive
COc1ccc(Oc2nc(Nc3ccc(N4CCOCC4)cc3)ncc2NC(=O)Nc2cccc(OC)c2)cc1
inactive
COc1cccc(/C=N\Nc2ccc([N+](=O)[O-])cn2)c1O
inactive
CCOC(=O)C1=C(C(=O)OCC)N(c2cc(OC)c(OC)c(OC)c2)C(N)=C(C#N)C1c1cc(=O)[nH]c2ccccc12 (centres undefined)
inactive

input: Tell me the assay call for O=C(/C=C/c1ccc(F)cc1)N1CCN(C(=O)/C=C/c2ccc(C(F)(F)F)cc2)CC1 please.
output: inactive

input: Then this molecule: CCCCCCCC/C=C\CCCCCCCC(=O)OCCCCCC
output: inactive

input: Then this molecule: COc1ccc([C@H]2c3[nH]c4ccccc4c3C[C@H]3C(=O)N(CCCCCCC(=O)NO)CC(=O)N23)cc1
output: inactive

input: Then this molecule: COc1cc(/C=C\c2cc(/C=C\c3ccc(O)c(OC)c3)n(C(=O)Nc3ccc(C(F)(F)F)cc3)n2)ccc1O
output: active

* * *

# Tested on: NCI-H226 lung
# ASSAY_EXPLANATION: NCI-60 one-dose screen, 48 h
# CONDITION_SET: 10 µM unless noted
This is part of a sample that, as a whole, favours compounds with a hit. Of some 83,000 tested, about 20% had one in any assay. Activity calls are given as the source filed them. The calls were made as follows: active = growth percent below 10; inactive = the rest.
One label from this list, please: active, inactive

Use the examples below as a reference point.
COC(=O)C(Br)(C(=O)OC)C(Br)C(Br)C(Br)c1ccccc1 (configuration not stated)
inactive
CCOC(=O)C1C(=O)C=C(c2cc(OC)c(OC)c(OC)c2)CC1c1sc(N(C)Cc2ccccc2)nc1Cl (configuration not stated)
inactive
CC(C)(C)[Si](C)(C)OC1[C@@H](O[Si](C)(C)C(C)(C)C)[C@@H](CNC(=O)NC(=O)NC(=O)CI)O[C@H]1n1cnc2c(NC(=O)Nc3ccccc3)ncnc21 (some centres not stated)
inactive
COc1ncnc2[nH]cc(CN3CCN(c4ccc(F)cc4)CC3)c12
inactive
COc1cc2ncnc(Nc3ccc(S(=O)(=O)Nc4cc(C)on4)cc3)c2cc1OCCCN1CCN(c2ccc([N+](=O)[O-])cc2)CC1
inactive

input: Tell me the assay call for Cc1ccc(C(CN(C)C)C(=O)c2ccccc2)cc1 (configuration not stated) please.
output: inactive

* * *

# Test system: 786-0 renal
# ASSAY_EXPLANATION: NCI-60 one-dose screen, 48 h (100 = growth as untreated, 0 = no growth, -100 = all killed)
# CONDITION_SET: 10 µM unless noted
This is part of a sample that, as a whole, favours compounds with a hit. Of some 83,000 tested, about 20% had one in any assay.
ASSAY_ENDPOINT: growth (%)
Kindly provide the numeric value in % only, without the unit symbol.

CC(C)(c1ccccc1)c1cc(O)c(C(C)(C)c2ccccc2)cc1O
30.5

--- query ---
input: Quick check: growth of O=S(=O)(Nc1ccc2ccccc2c1)N1CCCCC1 ?
output: 70.3

* * *

# Test system: UACC-257 melanoma
# ASSAY_EXPLANATION: NCI-60 one-dose screen, 48 h
# CONDITION_SET: 10 µM unless noted
This is part of a sample that, as a whole, favours compounds with a hit. Of some 83,000 tested, about 20% had one in any assay. Active and inactive are the calls of the source. How the source made its calls: active means growth percent below 10; inactive means the rest.
One label from this list, please: active, inactive

O/N=C/c1ccncc1
inactive
CCCCCCCCCCCC1=NC(C)(C)CN1CCO
inactive
CCOC(=O)c1cc(C(=O)OCC)c(C)nc1C
inactive
COc1ccc(-c2conc2-n2nc(-c3ccccc3)nc2-c2ccccc2)cc1
inactive

input: Tell me the assay call for Oc1c(C(Nc2cccc3ccccc23)c2ccccc2)ccc2cccnc12 (stereo unspecified) please.
output: inactive

input: Then this molecule: CCCCSc1ncnc2c1ncn2C1CCCCO1 (stereo unspecified)
output: inactive

input: Then this molecule: CC(C)c1cccc(C#N)c1
output: inactive

* * *

# Test system: OVCAR-4 ovarian
# ASSAY_EXPLANATION: NCI-60 one-dose screen, 48 h (100 = growth as untreated, 0 = no growth, -100 = all killed)
# CONDITION_SET: 10 µM unless noted
Compounds without any hit were thinned out: in the full panel of roughly 83,000, 20% have a hit.
Param threshold (80%) applies to growth; output YES when value >= threshold, NO when value < threshold.

Use the examples below as a reference point.
COc1ccc(-c2nc(SCCC(C)C)nc(Nc3ccc(C(=O)O)cc3)c2C#N)cc1
YES
CCOC(=O)C1OC2(CCCC2)OC1C(=O)OCC (stereo unspecified)
YES
COc1ccc(-c2cc(C(=O)Nc3ccc(Br)cc3)nc3[nH]c(=O)sc23)cc1
NO
CN1CCC2(CC1)N=C(SCC(=O)Nc1cnc3ccccc3c1)C(c1ccc(Br)cc1)=N2
NO
Cc1cccc2nc3ccccc3c(Nc3ccc(NS(C)(=O)=O)cc3)c12
NO

input: Does CC[C@]1(O)C[C@H]2CN(CCc3c([nH]c4ccccc34)C(C(=O)OC)(c3cc4c(cc3OC)N(C)[C@H]3[C@@](O)(C(=O)OC)[C@H](OC(C)=O)[C@]5(CC)[C@@H]6C[C@@H]6CN6CC[C@]43[C@@H]65)C2)C1 (stereo partly specified) have a reported growth of at least 80%?
output: NO

input: Then this compound: CC1CCN(CCCCCOc2ccc3oc4ccc(Cl)cc4c(=O)c3c2)CC1
output: NO

input: Then this compound: O=C(/C=C/c1cn(-c2ccccc2)nc1-c1ccccc1)OCc1cn(-c2cccc([N+](=O)[O-])c2)nn1
output: YES

input: Then this compound: CCOC(=O)C#Cc1c(C(=O)OCC)nnn1[C@@H]1O[C@H](COC(C)=O)[C@@H](OC(C)=O)[C@H]1OC(C)=O
output: YES

input: Then this compound: CCOC(=O)Nc1ccc2nc(Sc3ccc(Cl)cc3)sc2c1
output: NO

input: Then this compound: Cc1cc(Nc2c3ccccc3nc3ccccc23)ccc1NS(C)(=O)=O
output: NO

input: Then this compound: COc1cc(OC)c(C(=O)/C=C/c2cccc(OC(C)=O)c2)cc1CC=C(C)C
output: NO

input: Then this compound: COc1ccc(-c2cnnn2-c2nonc2-n2cccc2)cc1
output: NO

input: Then this compound: COc1ccc2nc(-c3ccc(-c4noc(-c5ccc(Cl)cc5)n4)cc3)[nH]c2c1
output: NO

input: Then this compound: O=C(Nc1ccc(-n2ccc3c(NC(=O)c4ccccc4)nccc32)cc1)c1ccc(N2CCOCC2)c(C(F)(F)F)c1
output: NO

input: Then this compound: CCN(CC)CCNC(=O)n1cc(-c2ccncc2)c(-c2ccc(Cl)c(OC)c2)n1
output: YES

* * *

# Test system: NCI-H460 lung
# ASSAY_EXPLANATION: NCI-60 one-dose screen, 48 h (100 = growth as untreated, 0 = no growth, -100 = all killed)
# CONDITION_SET: 10 µM unless noted
The panel holds about 83,000 compounds, 20% with a hit somewhere; the sample as a whole holds those more often.
Entries and their measured growth follow.
Kindly provide the numeric value in % only, without the unit symbol.

A selection of reference data follows.
COc1ccccc1-[n+]1cc(-c2ccc(-c3ccccc3)cc2)n2c1CCCCC2
7.28
CCOC(=O)C1C(=O)C=C(c2ccccc2)CC1c1sc(N(C)Cc2ccccc2)nc1Cl (centres undefined)
93.3
Oc1ccccc1-c1nnc(COc2ccc(Cl)cc2Cl)o1
28.3
CCN(CC)c1cc(C)c(Cc2c(OC)ccc3ccccc23)cc1C
95.1

input: Quick check: growth of CCN(CC)c1ccc(/C=N/NC(=O)C[N+](C)(C)C)cc1 ?
output: 110

input: Then this compound: CC(=O)O[C@H]1CC[C@]2(C)[C@H]3CC=C4[C@@H]5CC(C)(C)CC[C@]5(C(=O)OCC(COC(=O)C(Cl)Cl)(COC(=O)C(Cl)Cl)NC(=O)C(Cl)Cl)CC[C@@]4(C)[C@]3(C)CC[C@H]2C1(C)C
output: 49.4

input: Then this compound: Cc1cccc2nc3ccccc3c(Nc3ccc(NS(C)(=O)=O)cc3)c12
output: 10.1

input: Then this compound: Cc1ccc(C)c(NC(=O)c2sc3c(=O)[nH]cnc3c2C)c1
output: 81.9

input: Then this compound: c1ccc2c(N=NSc3ncnc4nc[nH]c34)c3ccccc3nc2c1
output: 2.58
